I'd be grateful if you could share measured IC50 for these entries.
tgt: integrin α4β7 (Homo sapiens, UniProt P13612+P26010)
Construct: lymphoma cell strain RPMI-8866 of human B cells, known to express integrin α4β7; endogenous in cells
Sequence (P13612 34-1032): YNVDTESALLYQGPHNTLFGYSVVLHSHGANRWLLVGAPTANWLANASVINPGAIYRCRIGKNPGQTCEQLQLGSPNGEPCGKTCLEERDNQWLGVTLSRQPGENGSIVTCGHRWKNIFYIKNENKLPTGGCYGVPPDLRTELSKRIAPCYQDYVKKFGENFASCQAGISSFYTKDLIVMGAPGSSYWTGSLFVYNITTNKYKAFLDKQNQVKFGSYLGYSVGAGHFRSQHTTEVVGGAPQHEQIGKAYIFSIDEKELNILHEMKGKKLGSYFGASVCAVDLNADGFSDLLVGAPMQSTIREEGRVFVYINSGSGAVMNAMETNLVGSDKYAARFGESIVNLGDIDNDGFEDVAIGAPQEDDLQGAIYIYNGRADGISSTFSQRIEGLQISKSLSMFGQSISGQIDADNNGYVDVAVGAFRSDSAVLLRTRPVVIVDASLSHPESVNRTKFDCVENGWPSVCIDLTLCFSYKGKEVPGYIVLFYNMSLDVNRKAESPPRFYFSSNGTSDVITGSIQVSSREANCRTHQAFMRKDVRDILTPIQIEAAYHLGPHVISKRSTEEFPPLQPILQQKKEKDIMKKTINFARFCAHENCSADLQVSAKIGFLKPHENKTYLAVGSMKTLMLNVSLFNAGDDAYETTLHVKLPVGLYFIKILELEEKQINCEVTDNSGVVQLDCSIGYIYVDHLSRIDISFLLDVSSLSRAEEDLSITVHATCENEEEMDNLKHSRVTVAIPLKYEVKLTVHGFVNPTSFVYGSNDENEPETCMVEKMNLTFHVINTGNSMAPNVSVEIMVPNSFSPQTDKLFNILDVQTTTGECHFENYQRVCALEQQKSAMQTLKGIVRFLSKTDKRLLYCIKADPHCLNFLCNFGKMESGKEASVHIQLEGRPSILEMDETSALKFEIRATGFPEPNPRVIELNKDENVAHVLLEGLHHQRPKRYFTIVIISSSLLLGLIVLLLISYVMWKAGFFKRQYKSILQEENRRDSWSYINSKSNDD
Sequence (P26010 20-798): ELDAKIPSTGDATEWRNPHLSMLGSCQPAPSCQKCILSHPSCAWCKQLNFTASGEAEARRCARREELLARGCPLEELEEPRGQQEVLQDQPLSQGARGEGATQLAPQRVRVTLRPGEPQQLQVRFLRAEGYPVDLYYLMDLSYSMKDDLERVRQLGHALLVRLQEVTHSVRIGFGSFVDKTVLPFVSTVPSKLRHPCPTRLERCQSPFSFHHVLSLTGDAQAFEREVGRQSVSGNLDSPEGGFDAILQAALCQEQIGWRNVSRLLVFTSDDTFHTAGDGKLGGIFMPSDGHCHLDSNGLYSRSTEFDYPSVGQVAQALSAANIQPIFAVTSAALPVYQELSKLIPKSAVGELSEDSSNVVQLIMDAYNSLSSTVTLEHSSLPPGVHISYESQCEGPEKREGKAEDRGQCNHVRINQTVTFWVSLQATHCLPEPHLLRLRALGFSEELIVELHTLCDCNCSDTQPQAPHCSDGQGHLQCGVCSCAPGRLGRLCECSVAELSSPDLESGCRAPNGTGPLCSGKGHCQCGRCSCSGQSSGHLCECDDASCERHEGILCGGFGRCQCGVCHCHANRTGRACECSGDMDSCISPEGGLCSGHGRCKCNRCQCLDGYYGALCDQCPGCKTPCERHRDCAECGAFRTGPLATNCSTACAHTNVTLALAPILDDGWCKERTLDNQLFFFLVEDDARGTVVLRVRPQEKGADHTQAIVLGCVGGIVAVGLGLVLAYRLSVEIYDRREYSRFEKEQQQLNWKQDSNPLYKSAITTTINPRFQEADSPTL
assay name: VCAM antagonistic activity (VCAM-1/α4β7 binding assay), RPMI-8866 cells binding to VCAM-1
experimental setup: RPMI-8866 human B lymphoma cells binding to recombinant human VCAM-1; binding buffer with 4 mM MnCl2
All answers are understood in nM, so give the number only.

Inquiry: State its IC50: CC(=O)Nc1ccc2c(c1)c(=O)n(-c1ccc(C[C@H](NC(=O)c3c(Cl)cccc3Cl)C(=O)O)cc1)c(=O)n2C
Reply text: 1.4

Inquiry: State its IC50: CCN(CC)c1ccc2c(c1)c(=O)n(-c1ccc(C[C@H](NC(=O)c3c(Cl)cccc3Cl)C(=O)O)cc1)c(=O)n2C
Reply text: 11

Inquiry: State its IC50: CN1C(=O)N(c2ccc(C[C@H](NC(=O)c3c(Cl)cccc3Cl)C(=O)O)cc2)Cc2ccccc21
Reply text: 6.5
